The measurements presented in this section are drawn from the supplement of paper PMC11246515.

ASSAY EXPLANATION: total protein half-life in vivo (active degradation + dilution); higher = more stable protein
EXPERIMENTAL SETUP: E. coli NCM3722 delta-lon; growth: N-lim chemostat; doubling time 6 h
ATTRIBUTE MEASURED: total protein half-life in vivo (h)
The answer is to be given in h; state only the numeric part.

Suppose we examine the sequence MIKWPWKVQESAHQTALPWQEALSIPLLTCLTEQEQSKLVTLAERFLQQKRLVPLQGFELDSLRSCRIALLFCLPVLELGLEWLDGFHEVLIYPAPFVVDDEWEDDIGLVHNQRIVQSGQSWQQGPIVLNWLDIQDSFDASGFNLIIHEVAHKLDTRNGDRASGVPFIPLREVAGWEHDLHAAMNNIQEEIELVGENAASIDAYAASDPAECFAVLSEYFFSAPELFAPRFPSLWQRFCQFYQQDPLQRLHHANDTDSFSATNVH ; what total protein half-life in vivo value has been reported?
1.79

Please report the recorded total protein half-life in vivo for MTLKELLVGFGTQVRSIWMIGLHAFAKRETRMYPEEPVYLPPRYRGRIVLTRDPDGEERCVACNLCAVACPVGCISLQKAETKDGRWYPEFFRINFSRCIFCGLCEEACPTTAIQLTPDFEMGEYKRQDLVYEKEDLLISGPGKYPEYNFYRMAGMAIDGKDKGEAENEAKPIDVKSLLP [P0AFD6] .
7.21

----------
Would you mind telling me the reported total protein half-life in vivo of each entry?
ASSAY EXPLANATION: total protein half-life in vivo (active degradation + dilution); higher = more stable protein
EXPERIMENTAL SETUP: wild type E. coli NCM3722; growth: N-lim chemostat; doubling time 6 h
Response body: numeric value in h, unit text excluded.

Name the recorded total protein half-life in vivo for MTIKNVICDIDGVLMHDNVAVPGAAEFLHGIMDKGLPLVLLTNYPSQTGQDLANRFATAGVDVPDSVFYTSAMATADFLRRQEGKKAYVVGEGALIHELYKAGFTITDVNPDFVIVGETRSYNWDMMHKAAYFVANGARFIATNPDTHGRGFYPACGALCAGIEKISGRKPFYVGKPSPWIIRAALNKMQAHSEETVIVGDNLRTDILAGFQAGLETILVLSGVSSLDDIDSMPFRPSWIYPSVAEIDVI [P0AF24] .
5.47

Which total protein half-life in vivo is reported for this sequence? MLDNVLRIATRQSPLALWQAHYVKDKLMASHPGLVVELVPMVTRGDVILDTPLAKVGGKGLFVKELEVALLENRADIAVHSMKDVPVEFPQGLGLVTICEREDPRDAFVSNNYDSLDALPAGSIVGTSSLRRQCQLAERRPDLIIRSLRGNVGTRLSKLDNGEYDAIILAVAGLKRLGLESRIRAALPPEISLPAVGQGAVGIECRLDDSRTRELLAALNHHETALRVTAERAMNTRLEGGCQVPIGSYAELIDGEIWLRALVGAPDGSQIIRGERRGAPQDAEQMGISLAEELLNNGAREILAEVYNGDAPA
4.12

Sample MTDVLLCVGNSMMGDDGAGPLLAEKCAAAPKGNWVVIDGGSAPENDIVAIRELRPTRLLIVDATDMGLNPGEIRIIDPDDIAEMFMMTTHNMPLNYLIDQLKEDIGEVIFLGIQPDIVGFYYPMTQPIKDAVETVYQRLEGWEGNGGFAQLAVEEE [P0AEV9] — what was its total protein half-life in vivo?
4.6

----------
ASSAY EXPLANATION: total protein half-life in vivo (active degradation + dilution); higher = more stable protein
EXPERIMENTAL SETUP: wild type E. coli NCM3722; growth: C-lim chemostat; doubling time 3 h
ATTRIBUTE MEASURED: total protein half-life in vivo (h)
Kindly answer with a numeric value in h, unit omitted.

Entry MTIAIVIGTHGWAAEQLLKTAEMLLGEQENVGWIDFVPGENAETLIEKYNAQLAKLDTTKGVLFLVDTWGGSPFNAASRIVVDKEHYEVIAGVNIPMLVETLMARDDDPSFDELVALAVETGREGVKALKAKPVEKAAPAPAAAAPKAAPTPAKPMGPNDYMVIGLARIDDRLIHGQVATRWTKETNVSRIIVVSDEVAADTVRKTLLTQVAPPGVTAHVVDVAKMIRVYNNPKYAGERVMLLFTNPTDVERLVEGGVKITSVNVGGMAFRQGKTQVNNAVSVDEKDIEAFKKLNARGIELEVRKVSTDPKLKMMDLISKIDK has what total protein half-life in vivo?
3.14

Give the measured total protein half-life in vivo of MAKVLVLYYSMYGHIETMARAVAEGASKVDGAEVVVKRVPETMPPQLFEKAGGKTQTAPVATPQELADYDAIIFGTPTRFGNMSGQMRTFLDQTGGLWASGALYGKLASVFSSTGTGGGQEQTITSTWTTLAHHGMVIVPIGYAAQELFDVSQVRGGTPYGATTIAGGDGSRQPSQEELSIARYQGEYVAGLAVKLNG [P0A8G6] .
3.23

# total protein half-life in vivo lookup, item MPSLSKEAALVHEALVARGLETPLRPPVHEMDNETRKSLIAGHMTEIMQLLNLDLADDSLMETPHRIAKMYVDEIFSGLDYANFPKITLIENKMKVDEMVTVRDITLTSTCEHHFVTIDGKATVAYIPKDSVIGLSKINRIVQFFAQRPQVQERLTQQILIALQTLLGTNNVAVSIDAVHYCVKARGIRDATSATTTTSLGGLFKSSQNTRHEFLRAVRHHN [P0A6T5]
2.81

----------
ASSAY EXPLANATION: total protein half-life in vivo (active degradation + dilution); higher = more stable protein
EXPERIMENTAL SETUP: wild type E. coli NCM3722; growth: P-lim chemostat; doubling time 6 h
ATTRIBUTE MEASURED: total protein half-life in vivo (h)
# number only, unit h dropped from output

If you can, please state the reported total protein half-life in vivo value of MAINFSPKVGEILECNFGNYPVSQNGPFSTTYYDGRIPPEMIKNRLVVVLNGKINGNACIVVPLSTTRDQDKLKRGMHVEIASNVINDLQFFDQQIRWAKADLVQQVSRNRLNRARTYRGYLNQCLPHELVADIQRAVIKSINAISLIN .
4.05

Field request: total protein half-life in vivo | item: MSFFISDAVAATGAPAQGSPMSLILMLVVFGLIFYFMILRPQQKRTKEHKKLMDSIAKGDEVLTNGGLVGRVTKVAENGYIAIALNDTTEVVIKRDFVAAVLPKGTMKAL [P0ADZ7]
6.55

Look up total protein half-life in vivo for this sequence: MSKSLQKPTILNVETVARSRLFTVESVDLEFSNGVRRVYERMRPTNREAVMIVPIVDDHLILIREYAVGTESYELGFSKGLIDPGESVYEAANRELKEEVGFGANDLTFLKKLSMAPSYFSSKMNIVVAQDLYPESLEGDEPEPLPQVRWPLAHMMDLLEDPDFNEARNVSALFLVREWLKGQGRV
5.95

// lookup total protein half-life in vivo for MPVRASIEPLTWENAFFGVNSAIVRITSEAPLLTPDALAPWSRVQAKIAASNTGELDALQQLGFSLVEGEVDLALPVNNASDSGAVVAQETDIPALRQLASAAFAQSRFRAPWYAPDASSRFYAQWIENAVRGTFDHQCLILRAASGDIRGYVSLRELNATDARIGLLAGRGAGAELMQTALNWAYARGKTTLRVATQMGNTAALKRYIQSGANVESTAYWLYR
5.73

----------
For each of the sequences below, state its total protein half-life in vivo.
ASSAY EXPLANATION: total protein half-life in vivo (active degradation + dilution); higher = more stable protein
EXPERIMENTAL SETUP: wild type E. coli NCM3722; growth: P-lim chemostat; doubling time 6 h
// units = h; emit number, no label

Item under review: MNTISSLETTDLPAAYHIEQRAHAFPWSEKTFASNQGERYLNFQLTQNGKMAAFAITQVVLDEATLFNIAVDPDYQRQGLGRALLEHLIDELEKRGVATLWLEVRASNAAAIALYESLGFNEATIRRNYYPTTDGREDAIIMALPISM [P0A944] . Reported total protein half-life in vivo?
4.53

What value of measured total protein half-life in vivo is listed for MIKKIFALPVIEQISPVLSRRKLDELDLIVVDHPQVKASFALQGAHLLSWKPAGEEEVLWLSNNTPFKNGVAIRGGVPVCWPWFGPAAQQGLPAHGFARNLPWTLKSHHEDADGVALTFELTQSEETKKFWPHDFTLLAHFRVGKTCEIDLESHGEFETTSALHTYFNVGDIAKVSVSGLGDRFIDKVNDAKENVLTDGIQTFPDRTDRVYLNPQDCSVINDEALNRIIAVGHQHHLNVVGWNPGPALSISMGDMPDDGYKTFVCVETAYASETQKVTKEKPAHLAQSIRVAKR ?
5.72

May I ask what total protein half-life in vivo has been recorded for MKHTVEVMIPEAEIKARIAELGRQITERYKDSGSDMVLVGLLRGSFMFMADLCREVQVSHEVDFMTASSYGSGMSTTRDVKILKDLDEDIRGKDVLIVEDIIDSGNTLSKVREILSLREPKSLAICTLLDKPSRREVNVPVEFIGFSIPDEFVVGYGIDYAQRYRHLPYIGKVILLDE [P0A9M2] ?
5.5
